target: AMP-activated protein kinase, AMPK (Homo sapiens) (UniProt P54646+O43741+P54619+Q9UGJ0+Q9Y478+Q13131+Q9UGI9); experiment: AMP-dependent Kinase enzyme assay. An in vitro enzyme assay that detects ADP turnover that is directly proportional to AMPK activity. This uses naive AMPK that is activated during the assay with MK-8722; format: functional; set-up: scale not given: direction of the effect not stated beside the values; conditions: 30 µM
property-name: Percent Effect (%)
Numeric only. Scale: %

CCC(=O)NC(CC)c1ccccc1C (stereo unspecified)    7.08
FC(F)(F)c1ccnc(N2CCCN(Cc3ccccn3)CC2)n1    -1.31
COc1ccc(CN2C[C@@H]3CC[C@H](C2)N(S(=O)(=O)C2CC2)C3)cc1    10.7
CC(=O)Nc1ccc(CNC(=O)CNCc2snnc2C)cc1    -1.84
N#CC1(NC(=O)c2cc(Cl)ccc2OC(F)F)CCOCC1    -2.23
O=C(NCc1ccco1)N1CCC(n2cc(-c3ccccn3)nn2)CC1    0.674
CC(CNC(=O)c1cc(Cn2cnc3ccccc32)[nH]n1)N1CCCC1 (stereo unspecified)    -5.09
CCN(C)C(=O)c1cccc(S(=O)(=O)NCCc2csc(N)n2)c1    -0.697
Cc1nccn1-c1nccnc1C1CCCN(C)C1 (stereo unspecified)    1.28
COC(=O)c1ccc(OCCn2cnc(C#N)n2)cc1    0.636

Query "Cc1nc(NC2(CN3CCCCC3)CCCCC2)c2cnn(C)c2n1" yields Percent Effect of 5.76

Query O=C(NCc1nccs1)N1CCOC(c2ccccc2Cl)C1 (stereo unspecified) yields Percent Effect of 4.45

Query "COc1ccc(CN(C)Cc2c(C)noc2C)c(Cl)c1OC" yields Percent Effect of 6

Query "COCCN(C)C[C@@H]1CN(Cc2ccnc3ccccc23)C[C@@H]1CO" yields Percent Effect of -4.2

Query "CC(C)c1nnc2n1CCN(Cc1ccc3c(c1)OCCO3)C2" yields Percent Effect of 3.43

Query "CCCc1nc(C)cc(N2Cc3cnn(CCO)c3C2)n1" yields Percent Effect of 5.18
